Data provenance: patent US20200079851A1

EXPERIMENTAL SYSTEM: T1, human LILRB4 (human, UniProt Q8NHJ6 22-259, limits assumed)
T1 construct: also called leukocyte immunoglobulin-like receptor subfamily B member 4
ASSAY EXPLANATION: flow cytometry on LILRB4-overexpressing 293T cells, mAb at 2 ug/ml
METRIC NAME: % of cells in the positive gate (%)
Respond with the bare value in %.

get_value(item= anti-LILRB4 mAb C201 (antibody, V domains shown, Mouse mAb) VH: DVQLQESGPGLVKPSQSLSLTCTVTGYSITSDYAWNWIRQFPGNKLEWMGYISYSGGTSYNPSLKSRISITRDTSKNQFFLQLNSVTTEDTATYYCARLHYGYDYWGLGTTLTVSS VL: DVLMTQTPLSLPVSLGDQASISCRSSQSIVHSNGNTYLEWYLQKPGQSPKLLIYKVSNRFSGVPDRFSGSGSGTDFTLKISRVEAEDLGVYYCFQGLHVPPTFGGGTKLEIK , readout=% of cells in the positive gate) returns 38.3
